# MEASURED ON: human CXCR4 (Homo sapiens, UniProt P61073)
# Construct: expressed in transfected cells; host or cells: mouse pre-B cell line 300-19
# Sequence (P61073 whole entry): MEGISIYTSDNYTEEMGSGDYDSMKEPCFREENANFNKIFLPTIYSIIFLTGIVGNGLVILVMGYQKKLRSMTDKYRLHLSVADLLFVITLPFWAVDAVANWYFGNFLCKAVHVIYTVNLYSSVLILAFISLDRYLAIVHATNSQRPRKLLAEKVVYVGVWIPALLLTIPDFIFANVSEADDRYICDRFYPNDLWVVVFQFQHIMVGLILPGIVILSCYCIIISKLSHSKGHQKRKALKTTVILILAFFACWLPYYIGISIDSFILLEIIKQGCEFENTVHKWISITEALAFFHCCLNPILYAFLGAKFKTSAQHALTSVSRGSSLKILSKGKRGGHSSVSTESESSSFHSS
# MEASUREMENT NOTES: Ca2+-assay: CXCR4-antagonizing activity (SDF-1 induced calcium mobilization)
# Format: cell-based
# EXPERIMENTAL PARAMETERS: mouse pre-B cell line 300-19 stably transfected with human CXCR4, read-out: IC50% [nM] ± SD, CXCR4 receptor
Numbered stars: 1 amine (or outer) side, 2 acyl side, 3 side chain; on linkers, the order of the positions; unused ones are H or OH. Bridge positions count the residues as written; N and C are the ends. Square brackets hold non-standard residues; d marks the D form. Peptide text beside a SMILES is read from it. Abu(3S-NH2) = C[C@H](N)[C@H](N)C(=O)O; Hpla = O=C(O)[C@@H](O)Cc1ccc(O)cc1; X1 = NCC[C@H](O[*:1])C(=O)[*:2]; Lac = C[C@H](O)C(=O)O
Friendly reminder: IC50 below 3 nM is class 1, at or above is class 0.

Exercise: I'd appreciate it if you could check whether C[C@@H]1NC(=O)[C@H](Cc2c[nH]cn2)NC(=O)[C@H](Cc2ccc(O)cc2)NC(=O)[C@@H]2CCCN2C(=O)[C@H]2CCCN2C(=O)[C@H](CCN)OC(=O)[C@H](CCC(N)=O)NC(=O)[C@H](Cc2ccc(O)cc2)NC(=O)[C@@H]2CSSC[C@H](NC1=O)C(=O)N[C@@H](CCCNC(=N)N)C(=O)N[C@@H](C)C(=O)N1CCC[C@@H]1C(=O)N[C@@H]([C@H](C)N)C(=O)N[C@@H](CCCNC(=N)N)C(=O)N[C@@H](Cc1ccc(O)cc1)C(=O)N2 [Example 8] (cyclo(YHACRA[dP][Abu(3S-NH2)]RYCYQ[X1][dP]P); disulfide 4-11) has IC50 smaller than 3 nM.
Solution: class 0

Exercise: I'd appreciate it if you could check whether `C[C@@H]1NC(=O)[C@H](Cc2c[nH]cn2)NC(=O)[C@H](Cc2ccc(O)cc2)NC(=O)[C@@H]2CCCN2C(=O)[C@H]2CCCN2C(=O)[C@H](CCCCN)NC(=O)[C@H](CCC(N)=O)NC(=O)[C@H](Cc2ccc(O)cc2)NC(=O)[C@@H]2CSSC[C@H](NC1=O)C(=O)N[C@@H](CO)C(=O)N[C@@H](C)C(=O)N1CCC[C@@H]1C(=O)O[C@@H](CCN)C(=O)N[C@@H](CCCNC(=N)N)C(=O)N[C@@H](Cc1ccc(O)cc1)C(=O)N2` has IC50 smaller than 3 nM.
Solution: class 1

Exercise: I'd appreciate it if you could check whether C[C@@H]1NC(=O)[C@H](Cc2c[nH]cn2)NC(=O)[C@H](Cc2ccc(O)cc2)NC(=O)[C@@H]2CCCN2C(=O)[C@H]2CCCN2C(=O)[C@H](CCN)OC(=O)[C@@H](CCC(N)=O)NC(=O)[C@H](Cc2ccc(O)cc2)NC(=O)[C@@H]2CSSC[C@H](NC1=O)C(=O)N[C@@H](CCCNC(=N)N)C(=O)N[C@@H](C)C(=O)N1CCC[C@@H]1C(=O)N[C@@H]([C@H](C)N)C(=O)N[C@@H](CCCNC(=N)N)C(=O)N[C@@H](Cc1ccc(O)cc1)C(=O)N2 [Example 10] (cyclo(YHACRA[dP][Abu(3S-NH2)]RYCY[dQ][X1][dP]P); disulfide 4-11) has IC50 smaller than 3 nM.
Solution: class 0

Exercise: I'd appreciate it if you could check whether C[C@@H]1NC(=O)[C@H](CCCNC(=N)N)NC(=O)[C@@H]2CSSC[C@H](NC(=O)[C@H](Cc3ccc(O)cc3)NC(=O)[C@H](CCCNC(=N)N)NC(=O)[C@H]([C@H](C)N)NC(=O)[C@H]3CCCN3C1=O)C(=O)N[C@@H](Cc1ccc(O)cc1)C(=O)N[C@@H](CCC(N)=O)C(=O)N[C@@H](CCCCN)C(=O)N1CCC[C@@H]1C(=O)N1CCC[C@H]1C(=O)N[C@@H](Cc1ccc(O)cc1)C(=O)N[C@@H](Cc1c[nH]cn1)C(=O)O[C@@H](C)C(=O)N2 [Example 9] (cyclo(YH[Lac]CRA[dP][Abu(3S-NH2)]RYCYQK[dP]P); disulfide 4-11) has IC50 smaller than 3 nM.
Solution: class 0

Exercise: I'd appreciate it if you could check whether C[C@@H]1NC(=O)[C@H](CCN)OC(=O)[C@H](Cc2ccc(O)cc2)NC(=O)[C@@H]2CCCN2C(=O)[C@H]2CCCN2C(=O)[C@H](CCCCN)NC(=O)[C@H](CCC(N)=O)NC(=O)[C@H](Cc2ccc(O)cc2)NC(=O)[C@@H]2CSSC[C@H](NC1=O)C(=O)N[C@@H](CO)C(=O)N[C@@H](C)C(=O)N1CCC[C@@H]1C(=O)N[C@@H]([C@H](C)N)C(=O)N[C@@H](CCCNC(=N)N)C(=O)N[C@@H](Cc1ccc(O)cc1)C(=O)N2 [Example 6] (cyclo(Y[X1]ACSA[dP][Abu(3S-NH2)]RYCYQK[dP]P); disulfide 4-11) has IC50 smaller than 3 nM.
Solution: class 0

Exercise: I'd appreciate it if you could check whether C[C@@H]1NC(=O)[C@H](Cc2c[nH]cn2)NC(=O)[C@H](Cc2ccc(O)cc2)NC(=O)[C@@H]2CCCN2C(=O)[C@H]2CCCN2C(=O)[C@H](CCCCN)NC(=O)[C@H](CCC(N)=O)NC(=O)[C@H](Cc2ccc(O)cc2)NC(=O)[C@@H]2CSSC[C@H](NC1=O)C(=O)N[C@H](CO)C(=O)O[C@@H](C)C(=O)N1CCC[C@@H]1C(=O)N[C@@H]([C@H](C)N)C(=O)N[C@@H](CCCNC(=N)N)C(=O)N[C@@H](Cc1ccc(O)cc1)C(=O)N2 [Example 7] (cyclo(YHAC[dS][Lac][dP][Abu(3S-NH2)]RYCYQK[dP]P); disulfide 4-11) has IC50 smaller than 3 nM.
Solution: class 1

Exercise: I'd appreciate it if you could check whether C[C@@H]1NC(=O)[C@H](Cc2c[nH]cn2)NC(=O)[C@H](Cc2ccc(O)cc2)OC(=O)[C@@H]2CCCN2C(=O)[C@H]2CCCN2C(=O)[C@H](CCCCN)NC(=O)[C@H](CCC(N)=O)NC(=O)[C@H](Cc2ccc(O)cc2)NC(=O)[C@@H]2CSSC[C@H](NC1=O)C(=O)N[C@@H](CO)C(=O)N[C@@H](C)C(=O)N1CCC[C@@H]1C(=O)N[C@@H]([C@H](C)N)C(=O)N[C@@H](CCCNC(=N)N)C(=O)N[C@@H](Cc1ccc(O)cc1)C(=O)N2 [Example 5] (cyclo([Hpla]HACSA[dP][Abu(3S-NH2)]RYCYQK[dP]P); disulfide 4-11) has IC50 smaller than 3 nM.
Solution: class 0

Exercise: I'd appreciate it if you could check whether C[C@@H]1NC(=O)[C@H](Cc2c[nH]cn2)NC(=O)[C@H](Cc2ccc(O)cc2)NC(=O)[C@@H]2CCCN2C(=O)[C@H]2CCCN2C(=O)[C@H](CCCCN)NC(=O)[C@H](CCC(N)=O)NC(=O)[C@H](Cc2ccc(O)cc2)NC(=O)[C@@H]2CSSC[C@H](NC1=O)C(=O)N[C@@H](CO)C(=O)O[C@@H](C)C(=O)N1CCC[C@@H]1C(=O)N[C@@H]([C@H](C)N)C(=O)N[C@@H](CCCNC(=N)N)C(=O)N[C@@H](Cc1ccc(O)cc1)C(=O)N2 [Example 1] (cyclo(YHACS[Lac][dP][Abu(3S-NH2)]RYCYQK[dP]P); disulfide 4-11) has IC50 smaller than 3 nM.
Solution: class 1

Exercise: I'd appreciate it if you could check whether C[C@@H]1NC(=O)[C@H](Cc2c[nH]cn2)NC(=O)[C@H](Cc2ccc(O)cc2)NC(=O)[C@@H]2CCCN2C(=O)[C@H]2CCCN2C(=O)[C@H](CCCCN)NC(=O)[C@H](CCC(N)=O)NC(=O)[C@H](Cc2ccc(O)cc2)OC(=O)[C@@H]2CSSC[C@H](NC1=O)C(=O)N[C@@H](CO)C(=O)N[C@@H](C)C(=O)N1CCC[C@@H]1C(=O)N[C@@H]([C@H](C)N)C(=O)N[C@@H](CCCNC(=N)N)C(=O)N[C@@H](Cc1ccc(O)cc1)C(=O)N2 [Example 3] (cyclo(YHACSA[dP][Abu(3S-NH2)]RYC[Hpla]QK[dP]P); disulfide 4-11) has IC50 smaller than 3 nM.
Solution: class 1

// data source = patent US8883720B2
